IC50 tested on SARS-CoV-2 Main Protease (SARS-CoV-2) (UniProt P0DTD1): recorded values

compound | tested on | IC50
Cc1nc(C2CC2)oc1C(=O)N(c1ccc(C(C)(C)C)cc1)C(C(=O)NCCc1cccc(F)c1)c1cccnc1 (stereo not drawn) | SARS-CoV-2 Main Protease (SARS-CoV-2) (UniProt P0DTD1) | > 99.5 µM
COc1c(O[C@@H]2O[C@H](CO)[C@@H](O)[C@H](O)[C@H]2O)cc2oc(-c3ccc(O)cc3)cc(=O)c2c1O (stereo in doubt) | SARS-CoV-2 Main Protease (SARS-CoV-2) (UniProt P0DTD1) | > 99.5 µM
COc1cnc(C#N)nc1 | SARS-CoV-2 Main Protease (SARS-CoV-2) (UniProt P0DTD1) | > 99.5 µM
